RUN_DESCRIPTION: Tolerability in Balb/c mice, body and organ weights (Example 11)
Type: in vivo
CONDITION: 50 mg/kg subcutaneously twice a week for four weeks, end of study
Strand notation (5' to 3'): a small letter for the sugar, then the base; units joined by * are phosphorothioate-linked, units joined directly phosphodiester-linked; [ ] holds rarer units or linkages, { } end groups; capitals alone tell only the bases. k = constrained ethyl (cEt); [5mC] = 5-methylcytosine; d = 2'-deoxy (DNA)
# note: exactly 0.4 g is not below, so it is Condition not met; use Condition met for Kidney weight strictly under it

q: Determine whether this substance shows Kidney weight lower than 0.4 g (ties excluded): 716481 (antisense kT*k[5mC]*kA*dG*d[5mC]*dA*dT*dA*dG*dA*dA*dG*dT*kA*kG*kG) [compound 716481]
a: Condition met

q: Here's an entry: 716455 (antisense kG*kT*kT*dA*dT*dG*dT*dT*dT*dG*dG*dG*dT*kG*kT*kG) [compound 716455] . Is its Kidney weight below 0.4 g?
a: Condition met

q: is_below(Kidney weight, 0.4 g) for 715487 (kA*kT*kT*dA*d[5mC]*dT*dT*d[5mC]*dA*dT*dA*dG*d[5mC]*kT*kT*kA) [compound 715487] ?
a: Condition not met

q: Is it true that Kidney weight reported for 716480 (antisense kG*k[5mC]*kA*dA*dG*dT*d[5mC]*dT*dT*dG*dT*dA*dA*kG*kT*kA) [compound 716480] is less than 0.4 g?
a: Condition met

q: I'd appreciate it if you could check whether 716424 (antisense kG*k[5mC]*kA*dA*dT*dG*dG*dA*d[5mC]*dA*dA*dG*dG*kA*kA*kG) [compound 716424] has Kidney weight smaller than 0.4 g.
a: Condition met

q: I'd appreciate it if you could check whether 715473 (kT*k[5mC]*kT*dT*dT*dA*dT*d[5mC]*dT*dA*dG*d[5mC]*dT*kT*kG*kG; antisense) [compound 715473] has Kidney weight smaller than 0.4 g.
a: Condition met

q: Determine whether this substance shows Kidney weight lower than 0.4 g (ties excluded): 716502 (antisense k[5mC]*kA*k[5mC]*dA*dG*dT*dG*dA*dT*dT*dG*d[5mC]*dA*kT*kT*kT) [compound 716502]
a: Condition not met

q: Bench note: check whether 715483 (k[5mC]*kT*k[5mC]*dT*dT*dT*dG*dG*dA*dA*dA*d[5mC]*d[5mC]*kA*kT*kT) [compound 715483] shows Kidney weight below 0.4 g
a: Condition not met

q: Criterion: Kidney weight strictly below 0.4 g. Is it met by 716454 (antisense k[5mC]*kG*kA*dG*dA*dT*dT*dT*dA*dA*dA*dT*dA*kA*kG*kG) [compound 716454] ?
a: Condition not met

###

Provide the reported YAP1 (% UTC) of each item.
System: Yap1 mRNA
RUN_DESCRIPTION: Antisense inhibition of human Yap1 in A-431 cells by cEt gapmers, single dose (Example 2, RTS4814)
Type: cell-based
CONDITION: Table 24; Yap1 mRNA as percent of untreated control; 3-10-3 cEt gapmers targeting SEQ ID NO.: 1, and 2
Strand notation (5' to 3'): a small letter for the sugar, then the base; units joined by * are phosphorothioate-linked, units joined directly phosphodiester-linked; [ ] holds rarer units or linkages, { } end groups; capitals alone tell only the bases. k = constrained ethyl (cEt); [5mC] = 5-methylcytosine; d = 2'-deoxy (DNA)
Your answer is read as % UTC, so omit the unit and give the number.

q: Kindly indicate its recorded YAP1 (% UTC). Item: 1075242 (antisense k[5mC]*kA*kG*dG*dG*dA*dT*dA*dA*dT*dT*dA*d[5mC]*kT*kA*kA) [Compound 1075242]
a: 7

q: Kindly indicate its recorded YAP1 (% UTC). Item: 1076362 (k[5mC]*k[5mC]*kA*d[5mC]*dT*dA*dA*dA*dT*dA*dA*dA*dG*k[5mC]*kA*kG; antisense) [Compound 1076362]
a: 16

q: Tell us which YAP1 (% UTC) value is on record for 1076202 (kT*k[5mC]*kT*dA*dA*dA*dA*dA*dG*dA*d[5mC]*dA*dG*kG*kG*k[5mC]; antisense) [Compound 1076202]
a: 32

q: Give a short answer stating reported YAP1 (% UTC) for 1074506 (kT*kA*kA*dT*d[5mC]*dG*dA*dG*dA*dT*dT*dT*dA*kA*kA*kT; antisense) [Compound 1074506] .
a: 107

q: Using known records, supply YAP1 (% UTC) for 1074570 (antisense kA*kT*kG*dA*dA*d[5mC]*d[5mC]*dT*dA*d[5mC]*dT*d[5mC]*dA*k[5mC]*kT*kG) [Compound 1074570]
a: 12

q: Report YAP1 (% UTC) for 1075466 (antisense kT*k[5mC]*k[5mC]*dA*dA*dA*dA*dA*d[5mC]*d[5mC]*dA*dT*d[5mC]*kA*kG*kT) [Compound 1075466]
a: 28

q: Check the records and state YAP1 (% UTC) for 1076234 (k[5mC]*k[5mC]*kT*dT*dA*dA*dT*dA*dT*dA*dT*d[5mC]*d[5mC]*kA*k[5mC]*kA; antisense) [Compound 1076234]
a: 24

q: Give reported YAP1 (% UTC) value for 1074762 (kG*k[5mC]*kT*dA*d[5mC]*d[5mC]*d[5mC]*dA*dA*dT*dA*d[5mC]*dA*kA*k[5mC]*k[5mC]; antisense) [Compound 1074762]
a: 6

q: Give YAP1 (% UTC) for the following substance: 1074538 (antisense kA*kT*k[5mC]*d[5mC]*dA*d[5mC]*dA*dG*dT*dA*dA*dT*dA*kG*k[5mC]*kT) [Compound 1074538]
a: 31

q: Using known records, supply YAP1 (% UTC) for 1074410 (antisense kT*kA*kG*dA*dG*dG*dA*dT*dT*dA*dA*dA*dG*kT*kA*kT) [Compound 1074410]
a: 32

q: Let me know recorded YAP1 (% UTC) for 1075978 (kA*kG*kA*dT*dT*dA*dA*dA*dA*dG*dT*d[5mC]*dG*kG*kG*k[5mC]; antisense) [Compound 1075978] , thanks.
a: 11

q: Please look at this substance and report its YAP1 (% UTC): 1075050 (antisense kA*k[5mC]*k[5mC]*d[5mC]*dA*dA*d[5mC]*dG*dG*dT*d[5mC]*dA*dT*kG*kT*kT) [Compound 1075050]
a: 94

###

RUN_DESCRIPTION: Cynomolgus monkey tolerability, pro-inflammatory proteins analysis, Complement C3 and CRP (Example 34)
Type: in vivo
CONDITION: cynomolgus monkeys, 35 mg/kg subcutaneously, day 42 (24 hr post-dose)
Kindly state Complement C3 for each of the entries shown.

q: Fill in Complement C3 for record 1198872 (TGTATGTCAGAAGAGT; chemically modified gapmer, further chemistry not given here) [compound 1198872]
a: 96 mg/dL

q: Please give the documented Complement C3 of 1198623 (CTAAGTAAGGTTTCCC; modified gapmer, further chemistry not given here) [compound 1198623]
a: 101 mg/dL

q: Give recorded Complement C3. 1198831 (CACTTTTACATTAGGA; chemically modified gapmer, further chemistry not given here) [compound 1198831]
a: 81 mg/dL

q: Specify measured Complement C3 for 1198605 (GTAATATTGCAATCTG; modified gapmer, further chemistry not given here) [compound 1198605] .
a: 95 mg/dL

q: Output Complement C3 of 958499 (ATTAGAGTATGTGGCA; 3-10-3 cEt gapmer, further chemistry not given here) [compound 958499]
a: 89 mg/dL

q: Read the entry 1198439 (AGTGTATGTCAGAAGA; sugar, 5-methylcytosine, phosphorothioate modifications, further chemistry not given here) [compound 1198439] and write its reported Complement C3.
a: 94 mg/dL

q: Give the value of Complement C3 reported for the following: 1198440 (AAGTGTATGTCAGAAG; cEt, 2'-MOE, 5-methylcytosine, phosphorothioate modifications, further chemistry not given here) [compound 1198440]
a: 88 mg/dL

q: Using known records, supply Complement C3 for 1197270 (TTAAAGTGTATGTCAG; cEt gapmer with 2'-OMe nucleoside, phosphorothioate, further chemistry not given here) [compound 1197270]
a: 86 mg/dL

q: // Input: 1198728 (TATTAGAGTATGTGGC; modified gapmer, further chemistry not given here) [compound 1198728] . Output its Complement C3 only.
a: 90 mg/dL

q: Consider the substance 1076453 (GTAATATTGCAATCTG; 3-10-3 cEt gapmer, further chemistry not given here) [compound 1076453] and give its recorded Complement C3.
a: 88 mg/dL

###

Test system: Yap1 mRNA
RUN_DESCRIPTION: Dose-dependent inhibition of human Yap1 in A-431 cells (Example 8, 10,000 cells per well, RTS4814)
Assay type: cell-based
CONDITION: 31.3 nM; A-431 cells
Strand notation (5' to 3'): a small letter for the sugar, then the base; units joined by * are phosphorothioate-linked, units joined directly phosphodiester-linked; [ ] holds rarer units or linkages, { } end groups; capitals alone tell only the bases. k = constrained ethyl (cEt); [5mC] = 5-methylcytosine; d = 2'-deoxy (DNA)
RECORDED_METRIC: % UTC (Yap1 mRNA) (% UTC)
Provide only the numeric value, understood in % UTC.

q: Fetch value of % UTC (Yap1 mRNA) on Yap1 mRNA for 1075701 (kA*kA*kT*dT*dA*d[5mC]*dT*dA*dG*dA*dG*dG*d[5mC]*kT*kT*k[5mC]; antisense) [compound 1075701] .
a: 84

q: Please look at 1074678 (antisense kT*kA*kA*dT*d[5mC]*dT*dG*dT*dG*dG*d[5mC]*dT*dA*k[5mC]*kT*kG) [compound 1074678] and tell me its recorded % UTC (Yap1 mRNA) on Yap1 mRNA.
a: 73

q: Enter recorded % UTC (Yap1 mRNA) with Yap1 mRNA for 1074452 (kT*kG*kA*d[5mC]*dT*dA*dA*dT*dG*dA*dT*dA*dG*k[5mC]*kA*k[5mC]; antisense) [compound 1074452] here.
a: 88
